test: collision cross section in nitrogen (drift tube, single-field); higher = larger gas-phase ion size; settings: ion type: [M+H]; ion source: APCI; ion mode: Positive;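 also: chemical standards at 10 µM analysed by drift tube IMS-QTOF MS in about 3.95 torr nitrogen, mean of duplicate injections differing ≤1%, mass error below 10 ppm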
Structures can show the parent of a compound that is named as a salt.
PARAMETER_MEASURED: collision cross section in nitrogen

>  <COMPOUND>
CC(C)(O)c1cnn2c(-c3ccc(F)c(-c4c(F)cccc4C#N)c3)cnc2n1

>  <PARAMETER_MEASURED>
collision cross section in nitrogen

>  <REPORTED_VALUE>
197.1 Å²

$$$$
>  <COMPOUND>
CC(C)(C)C(=O)C(Oc1ccc(Cl)cc1)n1cncn1 (stereo not given)

>  <PARAMETER_MEASURED>
collision cross section in nitrogen

>  <REPORTED_VALUE>
174.6 Å²

$$$$
>  <COMPOUND>
Cc1cccc(OP(=O)(Oc2cccc(C)c2)Oc2cccc(C)c2)c1

>  <PARAMETER_MEASURED>
collision cross section in nitrogen

>  <REPORTED_VALUE>
188.7 Å²

$$$$
>  <COMPOUND>
CN(C)c1ccc(N=O)cc1

>  <PARAMETER_MEASURED>
collision cross section in nitrogen

>  <REPORTED_VALUE>
128.7 Å²

$$$$
>  <COMPOUND>
O=C1Nc2ccc(Cl)cc2C(c2ccccc2)=NC1O (stereo not given)

>  <PARAMETER_MEASURED>
collision cross section in nitrogen

>  <REPORTED_VALUE>
163.5 Å²

$$$$
>  <COMPOUND>
ClCc1cccnc1 [3-(Chloromethyl)pyridine hydrochloride]

>  <PARAMETER_MEASURED>
collision cross section in nitrogen

>  <REPORTED_VALUE>
123.8 Å²

$$$$
>  <COMPOUND>
N=C(N)c1ccccc1 [Benzenecarboximidamide, monohydrochloride]

>  <PARAMETER_MEASURED>
collision cross section in nitrogen

>  <REPORTED_VALUE>
124.7 Å²

$$$$
>  <COMPOUND>
CSc1nnc(C(C)(C)C)c(=O)[nH]1

>  <PARAMETER_MEASURED>
collision cross section in nitrogen

>  <REPORTED_VALUE>
144.2 Å²

$$$$
>  <COMPOUND>
C#CC(C)N(C)C(=O)Nc1ccc(Cl)cc1 (stereo not given)

>  <PARAMETER_MEASURED>
collision cross section in nitrogen

>  <REPORTED_VALUE>
152.2 Å²

$$$$
>  <COMPOUND>
OCCN(CCO)c1ccccc1

>  <PARAMETER_MEASURED>
collision cross section in nitrogen

>  <REPORTED_VALUE>
137.7 Å²

$$$$

---

experiment: collision cross section in nitrogen (drift tube, single-field); higher = larger gas-phase ion size; conditions: ion type: [M-H]; ion source: ESI; ion mode: Negative
PARAMETER_MEASURED: collision cross section in nitrogen (Å²)

>  <MOLECULE>
Cc1ccc(S(=O)(=O)O)c(C)c1 [2,4-Dimethylbenzenesulfonic acid]

>  <REPORTED_VALUE>
138.3

$$$$
>  <MOLECULE>
CCCOC/C(=N\c1ccc(Cl)cc1C(F)(F)F)n1ccnc1

>  <REPORTED_VALUE>
170.3

$$$$
>  <MOLECULE>
O=C(Nc1cccc([N+](=O)[O-])c1)c1cc2ccccc2cc1O [3-Hydroxy-N-(3-nitrophenyl)naphthalene-2-carboxamide]

>  <REPORTED_VALUE>
170.2

$$$$
>  <MOLECULE>
CCCN(CCC)c1c([N+](=O)[O-])cc(C(F)(F)F)c(N)c1[N+](=O)[O-]

>  <REPORTED_VALUE>
171.1

$$$$
>  <MOLECULE>
CCOc1nc(F)cc2nc(S(=O)(=O)Nc3c(Cl)cccc3C(=O)OC)nn12

>  <REPORTED_VALUE>
190.2

$$$$
>  <MOLECULE>
CCCCC(CC)C(=O)O (stereo not drawn) [Potassium 2-ethylhexanoate]

>  <REPORTED_VALUE>
137.8

$$$$
>  <MOLECULE>
CC(C)C(=O)Nc1ccc([N+](=O)[O-])c(C(F)(F)F)c1 [Flutamide]

>  <REPORTED_VALUE>
154.9

$$$$
>  <MOLECULE>
CC1=C(C(=O)Nc2ccccc2)SCCO1

>  <REPORTED_VALUE>
155.8

$$$$
>  <MOLECULE>
Oc1ccc(Cl)cc1Cl

>  <REPORTED_VALUE>
123.6

$$$$
>  <MOLECULE>
Oc1ccccc1Br

>  <REPORTED_VALUE>
120.2

$$$$
>  <MOLECULE>
O=C(Nc1ccccc1)c1ccccc1O [Salicylanilide]

>  <REPORTED_VALUE>
145.5

$$$$
>  <MOLECULE>
CC(C)(C)c1ccc(OC(=O)c2ccccc2O)cc1 [4-tert-Butylphenyl salicylate]

>  <REPORTED_VALUE>
168.4

$$$$
>  <MOLECULE>
O=C(N[C@@H](c1ccccc1)[C@@H]1CCCCN1)c1cccc(C(F)(F)F)c1Cl

>  <REPORTED_VALUE>
191.6

$$$$
>  <MOLECULE>
CC(C)(c1ccccc1)c1ccc(Nc2ccc(C(C)(C)c3ccccc3)cc2)cc1

>  <REPORTED_VALUE>
222.7

$$$$
>  <MOLECULE>
O=S(=O)(O)CCCN1CCOCC1

>  <REPORTED_VALUE>
149.5

$$$$
>  <MOLECULE>
Nc1cc(-c2ccncc2)c[nH]c1=O

>  <REPORTED_VALUE>
140.7

$$$$
>  <MOLECULE>
O=S(=O)(O)C(F)(F)C(F)(F)C(F)(F)C(F)(F)C(F)(F)C(F)(F)C(F)(F)C(F)(F)F [Lithium perfluorooctanesulfonate]

>  <REPORTED_VALUE>
168.3

$$$$
>  <MOLECULE>
O=C(O)c1cc(Br)c(O)c(Br)c1 [3,5-Dibromo-4-hydroxybenzoic acid]

>  <REPORTED_VALUE>
136.4

$$$$
